- Tested on: α7 integrin promoter
- Test Summary: muscle cell-based assay: α7βgal+/− myoblasts/myotubes, LacZ reporter, β-galactosidase cleavage of FDG
- Set-up: species or system mouse
- Experimental Context: Myotubes; compound at 5 uM
Quantity Name: Results in a α7+/− β-galactosidase assay, Myotubes, 5 uM

[
  {
    "Compound": "CC(=O)C1=C(C)Nc2ncnn2C1c1ccc(C)cc1 (stereo not drawn) [drawing 447]",
    "Readout Number": 0.152
  },
  {
    "Compound": "Cn1ccc(C(=O)Nc2cccnc2Cl)n1 [drawing 502]",
    "Readout Number": 0.0198
  },
  {
    "Compound": "COc1ccc(OC)c(NC(=O)CN2CCC(NC(=O)c3ccccc3C)CC2)c1 [drawing 366]",
    "Readout Number": "−0.09583"
  },
  {
    "Compound": "Cc1ccccc1/C=C1\\C(=O)Nc2ccc(F)cc21 [drawing 456]",
    "Readout Number": "−0.02208"
  },
  {
    "Compound": "COc1ccc(NC(=O)C2(N(C(=O)Cn3nnnc3N)c3ccc(OC)cc3)CCCCC2)cc1 [drawing 324]",
    "Readout Number": 0.2107
  },
  {
    "Compound": "CCOC(=O)c1nnn(-c2nonc2OC)c1-c1ccccc1 [drawing 344]",
    "Readout Number": 0.1364
  },
  {
    "Compound": "CCCCN1CC(=O)N2Cc3[nH]c4ccccc4c3C[C@H]2C1=O [drawing 478]",
    "Readout Number": "−0.3665"
  },
  {
    "Compound": "Cc1ccc(/C=C2\\C(=O)Nc3ccccc32)o1 [drawing 356]",
    "Readout Number": "−0.1043"
  },
  {
    "Compound": "COc1ccc(C(=O)/C=C2\\C(=O)Nc3ccccc32)cc1OC [drawing 420]",
    "Readout Number": 0.02829
  },
  {
    "Compound": "Cn1cc(CN2CCC(C(=O)Nc3cccc(-c4cscn4)c3)CC2)cn1 [drawing 494]",
    "Readout Number": "−0.2802"
  },
  {
    "Compound": "CCOC(=O)c1cc(-c2cccs2)nc2c1c(C)nn2-c1ccccn1 [drawing 462]",
    "Readout Number": "−0.1329"
  },
  {
    "Compound": "N#CC1=C2SCN(c3ccccc3)CN2C(=O)CC1c1cccs1 (stereo not drawn) [drawing 360]",
    "Readout Number": "−0.0988"
  }
]
